tested-on: Human Cot (Homo sapiens (Human))
Sequence (P41279 30-397): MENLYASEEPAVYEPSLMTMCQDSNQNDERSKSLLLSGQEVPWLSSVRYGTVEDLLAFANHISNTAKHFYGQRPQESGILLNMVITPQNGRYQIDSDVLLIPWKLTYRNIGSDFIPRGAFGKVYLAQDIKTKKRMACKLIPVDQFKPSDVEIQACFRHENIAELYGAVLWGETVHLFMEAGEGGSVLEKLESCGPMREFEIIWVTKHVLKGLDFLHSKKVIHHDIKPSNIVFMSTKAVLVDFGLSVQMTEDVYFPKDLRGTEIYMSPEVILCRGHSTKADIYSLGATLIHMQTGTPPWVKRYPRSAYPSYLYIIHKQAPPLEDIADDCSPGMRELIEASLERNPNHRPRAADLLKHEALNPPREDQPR
assay-summary: High Throughput Cot Biochemical Assay
condition-summary: IC50 HTRF, Cot HTRF (TR-FRET) biochemical assay
pIC50: −log10 of the molar value.
readout-label: pIC50

These solved cases illustrate the format of a correct answer.
# molecule, readout-label, experimental-result
rows = [
    ("N#Cc1cnc2c(Cl)cc(N[C@H](c3cn(CCO)nn3)c3cnc(Cl)cc3Cl)cc2c1Nc1ccc(F)c(Cl)c1", "pIC50", 7.23),
    ("Cn1ccc2c([C@H](Nc3cc(Cl)c4ncc(C#N)c(NCC(C)(C)C)c4c3)c3cn(C4(C(F)F)CC4)nn3)cccc21", "pIC50", 6.93),
    ("Cc1nc(F)ccc1[C@H](Nc1cc(Cl)c2ncc(C#N)c(NCC(C)(C)C(F)(F)F)c2c1)c1cn(C2(C(F)F)CC2)nn1", "pIC50", 8.52),
    ("[2H]c1c([C@@H](Nc2cc(C#N)c3ncc(C#N)c(NCC(C)(C)C)c3c2)c2ccc(F)nc2C)nnn1C1(C(F)(F)F)CC1", "pIC50", 8.40),
]

I = [2H]C(Nc1cc(Cl)c2ncc(C#N)c(NCC(C)(C)C)c2c1)(c1cn(C2CC2)nn1)c1ccc(F)nc1F (stereo not drawn)
II = CC(C)(C)CNc1c(C#N)cnc2c(Br)cc(N[C@H](c3cn(C4(C(N)=O)CC4)nn3)c3cccc4ncsc34)cc12
# input # query: argmin of pIC50 over I and II Response format: the label of the selected entry.
# output I
(I: 8.52, II: 9.00)
